measured.on: T1, tetrameric human DC-SIGN (human, UniProt Q9NNX6 66-404)
T1 sequence (looked up): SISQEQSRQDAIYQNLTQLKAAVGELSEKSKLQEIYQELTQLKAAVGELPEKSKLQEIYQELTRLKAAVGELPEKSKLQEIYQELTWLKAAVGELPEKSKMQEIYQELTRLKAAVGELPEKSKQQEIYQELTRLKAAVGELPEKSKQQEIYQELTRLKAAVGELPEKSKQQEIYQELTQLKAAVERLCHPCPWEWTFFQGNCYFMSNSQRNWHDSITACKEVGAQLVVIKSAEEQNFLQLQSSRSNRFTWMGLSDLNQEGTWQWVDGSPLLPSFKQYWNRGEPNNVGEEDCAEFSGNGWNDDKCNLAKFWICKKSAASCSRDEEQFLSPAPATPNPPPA
protocol.text: ELISA
quantity.kind: binding result

[change]/[change] (other) DKTHTCPPCPAPELLGGPSVFLFPPKPKDTLMISRTPEVTCVVVDVSHEDPEVKFNWYVDGVEVHNAKTKPREEQYASTYRVVSVLTVCLQDWLNGKEYKCKVSNKALPAPIEKTISKAKGQPREPQVYTLPPSREEMTKNQVSLTCLVKGFYPSDIAVEWESNGQPENNYKTTPPVLDSDGSFFLYSKLTVDKSRWQQGNVFSCSVMHEALHNHYTQKSLSLSPGKLVLGPPLYNVSLVMSDTAGTAY | no binding
[change]/[change] (other) NKTHTCPPCPAPELLGGPSVFLFPPKPKDTLMISRTPEVTCVVVDVSHEDPEVKFNWYVDGVEVHNAKTKPREEQYNSTYRVVSVLTVCLQDWLNGKEYKCKVSNKALPAPIEKTISKAKGQPREPQVYTLPPSREEMTKNQVSLTCLVKGFYPSDIAVEWESNGQPENNYKTTPPVLDSDGSFFLYSKLTVDKSRWQQGNVFSCSVMHEALHNHYTQKSLSLSPGKLVLGPPLYNVSLVMSDTAGTAY | no binding
[change]/[change]/[change] (other) NKTHTCPPCPAPELLGGPSVFLFPPKPKDTLMISRTPEVTCVVVDVSHEDPEVKFNWYVDGVEVHNAKTKPREEQYNSTYRVVSVLTVCLQDWLNGKEYKCKVSNKALPAPIEKTISKAKGQPREPQVYTLPPSREEMTKNQVSLTCLVKGFYPSDIAVEWESNGQPENNYKTTPPVLDSDGSFFLYSKLTVDKSRWQQGNVFSCSVMHEALHNHYTQKSLSLSPGKLVLGPPLYAVSLVMSDTAGTAY | no binding
[change]/[change]/[change]/[change] (other) NKTHTCPPCPAPELLGGPSVFLFPPKPKDTLMISRTPEVTCVVVDVSHEDPEVKFNWYVDGVEVHNAKTKPREEQYASTYRVVSVLTVCLQDWLNGKEYKCKVSNKALPAPIEKTISKAKGQPREPQVYTLPPSREEMTKNQVSLTCLVKGFYPSDIAVEWESNGQPENNYKTTPPVLDSDGSFFLYSKLTVDKSRWQQGNVFSCSVMHEALHNHYTQKSLSLSPGKLVLGPPLYAVSLVMSDTAGTAY | no binding
[change]/[change]/[change] (other) NKTHTCPPCPAPELLGGPSVFLFPPKPKDTLMISRTPEVTCVVVDVSHEDPEVKFNWYVDGVEVHNAKTKPREEQYASTYRVVSVLTVCLQDWLNGKEYKCKVSNKALPAPIEKTISKAKGQPREPQVYTLPPSREEMTKNQVSLTCLVKGFYPSDIAVEWESNGQPENNYKTTPPVLDSDGSFFLYSKLTVDKSRWQQGNVFSCSVMHEALHNHYTQKSLSLSPGKLVLGPPLYNVSLVMSDTAGTAY | no binding
[change]/[change]/[change] (other) DKTHTCPPCPAPELLGGPSVFLFPPKPKDTLMISRTPEVTCVVVDVSHEDPEVKFNWYVDGVEVHNAKTKPREEQYASTYRVVSVLTVCLQDWLNGKEYKCKVSNKALPAPIEKTISKAKGQPREPQVYTLPPSREEMTKNQVSLTCLVKGFYPSDIAVEWESNGQPENNYKTTPPVLDSDGSFFLYSKLTVDKSRWQQGNVFSCSVMHEALHNHYTQKSLSLSPGKLVLGPPLYAVSLVMSDTAGTAY | binds
